Reference source: paper PMC9482650

- SYSTEM_NAME: T1, ARHGEF11, O15085
- T1 sequence (O15085 42-136, limits assumed, looked up): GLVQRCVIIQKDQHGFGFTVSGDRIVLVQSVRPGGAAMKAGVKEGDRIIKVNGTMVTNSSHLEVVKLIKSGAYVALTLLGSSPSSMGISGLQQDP
- EXPERIMENT_SUMMARY: holdup assay
- Set-up: key: below the threshold = too weak to quantify, mostly under pKd 3.1 to 4
- STATED_CONDITIONS: plain residues with an end cap or a label only (N-terminal biotin on a linker: ado-ado)
Listed here are binders together with their documented pKd.
Respond numerically, and do not add a unit to the figure.

BINDER	ASSAY_METRIC	QUANTITATIVE_READOUT
PRAEAEDSFL [PDGFRB, P09619]	pKd	3.78

Identify the reported pKd for the following entry. TKGPRGPTRV [SAPCD1, Q5SSQ6]
4.03

Identify the reported pKd for the following entry. RHGSCVETSL [TMEM151B, Q8IW70]
4.41

Identify the reported pKd for the following entry. AKPSRISTVV [IQSEC2, Q5JU85]
4.59

Identify the reported pKd for the following entry. QSARLWETSI [ADAM22, Q9P0K1]
3.79

Identify the reported pKd for the following entry. PDGQCTVTEV [RNF146, Q9NTX7]
5.09
